Below, each entry is listed alongside its reported SI to 3T3.
# System: 3T3 host cells
# experimentalDetails: 3T3 host cell activity in the T. cruzi image-based assay
# Parameters: species or system mouse
# conditionDescription: ratio 3T3 host cell / parasite IC50, 48 hours

molecule	SI to 3T3
COc1ccc(C[C@H](N)C(=O)N[C@H]2[C@@H](O)[C@H](n3cnc4c(N(C)C)ncnc43)O[C@@H]2CO)cc1 [PURO, puromycin]	1.36
CC(=O)N1CCC(N(Cc2cccnc2)C(=O)Nc2ccc(Cl)cc2)CC1 [Compound 3]	>14.2
CCc1ccc(NC(=O)N(Cc2cccnc2)Cc2ccccc2Cl)cc1 [Compound 1]	>5.26

Ask | Entry under review: O=C(Cn1ccnc1[N+](=O)[O-])NCc1ccccc1 [BZ, benznidazole] . Reported SI to 3T3?
Reply | >35.7

Ask | Param item: CCOc1ccc(NC(=O)N(Cc2ccc(C)cc2)Cc2cccnc2)cc1 [Compound 4]
Reply | >13.1

Ask | Okay, and CCOC(=O)C(=O)NCC(c1cccnc1)N1CCN(c2ccccc2)CC1 (centres unmarked) [Compound 2] ?
Reply | >8.43

Ask | Thanks! And CC1CS(=O)(=O)CCN1/N=C/c1ccc([N+](=O)[O-])o1 (centres unmarked) [NFX, nifurtimox] ?
Reply | >179

Ask | Could you do the same for Cc1ccc(CN(Cc2cccnc2)C(=O)Nc2ccc(Cl)c(Cl)c2)cc1 [Compound 5] , please?
Reply | >10.0
